Kindly state 3F8 Ortho Proliferation Signal 1:2 for each of the entries shown.
# system.name: T1, orthogonal hCD122 receptor (hoRb), hCD122 with H133D and Y134F (human, UniProt P14784 27-550)
# T1 sequence: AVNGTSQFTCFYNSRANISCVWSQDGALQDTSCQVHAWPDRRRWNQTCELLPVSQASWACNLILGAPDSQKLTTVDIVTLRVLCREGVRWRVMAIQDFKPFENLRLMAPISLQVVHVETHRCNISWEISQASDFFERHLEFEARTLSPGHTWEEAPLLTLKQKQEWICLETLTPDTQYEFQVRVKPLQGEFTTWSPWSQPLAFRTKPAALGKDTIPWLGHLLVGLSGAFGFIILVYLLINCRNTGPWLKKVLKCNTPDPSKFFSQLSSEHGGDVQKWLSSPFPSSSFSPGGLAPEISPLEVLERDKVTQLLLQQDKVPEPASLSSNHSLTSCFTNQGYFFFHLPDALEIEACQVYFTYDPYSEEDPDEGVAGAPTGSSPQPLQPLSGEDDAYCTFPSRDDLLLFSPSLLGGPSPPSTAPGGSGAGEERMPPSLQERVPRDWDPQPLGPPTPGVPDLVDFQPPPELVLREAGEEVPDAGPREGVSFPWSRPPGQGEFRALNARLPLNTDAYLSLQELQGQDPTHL
# protocol.notes: cell-based or functional assay
Numbers only, in cts/min.

Batch request: 3F8 Ortho Proliferation Signal 1:2 for each of the following binders.
1. C125S, SQVLKA (ligand) APTSSSTKKTQLQLSQLLVLLKAILNGINNYKNPKLTRMLTFKFYMPKKATELKHLQCLEEELKPLEEVLNLAQSKNFHLRPRDLISNINVIVLELKGSETTFMCEYADETATIVEFLNRWITFSQSIISTLT
2. R81Y, SQVLKA (ligand) APTSSSTKKTQLQLSQLLVLLKAILNGINNYKNPKLTRMLTFKFYMPKKATELKHLQCLEEELKPLEEVLNLAQSKNFHLYPRDLISNINVIVLELKGSETTFMCEYADETATIVEFLNRWITFCQSIISTLT
3. R81D, SQVLKA (ligand) APTSSSTKKTQLQLSQLLVLLKAILNGINNYKNPKLTRMLTFKFYMPKKATELKHLQCLEEELKPLEEVLNLAQSKNFHLDPRDLISNINVIVLELKGSETTFMCEYADETATIVEFLNRWITFCQSIISTLT
4. SQVLKW (ligand) APTSSSTKKTQLQLSQLLVLLKWILNGINNYKNPKLTRMLTFKFYMPKKATELKHLQCLEEELKPLEEVLNLAQSKNFHLRPRDLISNINVIVLELKGSETTFMCEYADETATIVEFLNRWITFCQSIISTLT

Result:
1. 36200
2. 35800
3. 39300
4. 40800

Measured 3F8 Ortho Proliferation Signal 1:2, T3R, SQVLKA (ligand) APRSSSTKKTQLQLSQLLVLLKAILNGINNYKNPKLTRMLTFKFYMPKKATELKHLQCLEEELKPLEEVLNLAQSKNFHLRPRDLISNINVIVLELKGSETTFMCEYADETATIVEFLNRWITFCQSIISTLT : 28900
